Numbers sourced from paper doi:10.1101/2021.11.05.467463v1.

- systemTested: PfPKG (Plasmodium falciparum, UniProt Q8I719)
- Sequence (Q8I719 whole entry): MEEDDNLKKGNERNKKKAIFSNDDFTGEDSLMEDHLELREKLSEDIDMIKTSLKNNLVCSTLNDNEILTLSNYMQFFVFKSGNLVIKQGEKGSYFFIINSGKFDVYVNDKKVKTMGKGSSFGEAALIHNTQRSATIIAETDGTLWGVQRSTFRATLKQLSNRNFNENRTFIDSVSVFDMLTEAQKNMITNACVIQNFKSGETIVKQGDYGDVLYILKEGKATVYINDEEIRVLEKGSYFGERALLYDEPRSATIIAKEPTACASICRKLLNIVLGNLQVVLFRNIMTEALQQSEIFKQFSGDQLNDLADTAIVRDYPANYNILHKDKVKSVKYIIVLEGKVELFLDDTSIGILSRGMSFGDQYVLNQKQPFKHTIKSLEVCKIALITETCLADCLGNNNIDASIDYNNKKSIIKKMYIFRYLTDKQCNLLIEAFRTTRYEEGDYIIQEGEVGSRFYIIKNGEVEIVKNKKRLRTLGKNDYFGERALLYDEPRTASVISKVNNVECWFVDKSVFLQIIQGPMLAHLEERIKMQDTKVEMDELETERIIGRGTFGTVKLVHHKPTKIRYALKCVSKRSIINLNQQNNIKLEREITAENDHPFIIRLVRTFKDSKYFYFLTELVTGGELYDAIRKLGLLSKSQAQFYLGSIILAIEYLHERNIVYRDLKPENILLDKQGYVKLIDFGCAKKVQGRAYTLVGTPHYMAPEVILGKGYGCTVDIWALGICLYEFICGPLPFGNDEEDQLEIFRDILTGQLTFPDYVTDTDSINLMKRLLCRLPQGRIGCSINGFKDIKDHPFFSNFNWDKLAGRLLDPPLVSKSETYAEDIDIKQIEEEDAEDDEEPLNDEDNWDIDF
- experimentalProtocol: in vitro PfPKG enzyme inhibition assay
- Assay type: biochemical
- cond: […] compound
This section presents compounds with their documented % inh @ 1 μM values.
Just the number in %, nothing appended.

Here is how some compounds turned out for % inh @ 1 μM.
>>> assayvalue("Cc1cn(-c2ccnc(N[C@H]3CCN(C(=O)c4nccs4)C3)n2)c(-c2ccccc2)n1 [10c]")
4
>>> assayvalue("Cc1cn(-c2ccnc(NC3CCN(C(=O)c4nccs4)CC3)n2)c(-c2ccccc2)n1 [10e]")
5
>>> assayvalue("Cc1cn(-c2ccnc(NC3CCCN(C(=O)c4nccs4)C3)n2)c(-c2ccccc2)n1 (racemic) [10d]")
4

Please look at the following compound next.
Can you look up the measured % inh @ 1 μM of Cc1cn(-c2ccnc(NCC3CCCN3C(=O)c3nccs3)n2)c(-c2ccccc2)n1 (racemic) [10f] for me?
3
